assay details: chemical genetic growth profiling, strain panel (AID 1159580);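 further: tested at 20 µM; growth read once vehicle control cultures reached saturation at 30 °C; 1 = growth at the plate median or of vehicle wells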
condition parameters: S. cerevisiae deletion strains, growth OD, locus YHR129C, strain ARP1, active compounds read low
In all, about 5,500 compounds went through this assay and about 2,000 (36%) were called active. About 18% were inconclusive and are not listed. This is one part of the list.
attribute measured: normalized growth
No unit in the answer, please; the number alone is enough.

Take a look at these entries with their results.
compound: COc1ccc(CC2c3cc(OC)c(OC)cc3CCN2C)cc1OC (configuration not stated)
measured result: 0.987

compound: COc1cc(OC)c2c(c1)OC(c1ccc(OC)c(OC)c1)C(O)C2 (configuration not stated)
measured result: 1.02

compound: CC(C)CC1C(=O)N2CCC[C@H]2C2(O)O[C@](NC(=O)C3C=C4c5cccc6[nH]c(Br)c(c56)C[C@H]4N(C)C3)(C(C)C)C(=O)N12 (some centres not stated)
measured result: 0.985

compound: CN1C2CC3C[C@H]1C(O3)C2O (some centres not stated)
measured result: 1

For CCC(C(=O)O)c1ccccc1 (configuration not stated) the compound record lists normalized growth as 0.995

Recorded result, "O=C(/C=C/C=C/c1ccc2c(c1)OCO2)N1CCCCC1" , normalized growth: 0.973

Kindly note the recorded normalized growth for "CCN(CC)C(=S)SSC(=S)N(CC)CC" , which is 0.0581

* * *

assay details: chemical genetic growth profiling, strain panel (AID 1159580)
condition parameters: S. cerevisiae deletion strains, growth OD, locus YLR058C, strain SHM2
The campaign covered roughly 5,500 compounds. About 2,000 (36%) were called active. Not shown: some 18% with an inconclusive outcome. Rule as the data show it: active = normalized growth mostly below about 0.91 (no sharp cut-off); inconclusive = no clear call, values can overlap the other calls; inactive = mostly above about 0.92. The list shows a part of the results.
Outcome (select one): active, inactive

compound: COc1cc(O)c(C(=O)c2ccccc2)cc1O
assigned label: inactive

compound: COc1ccc(-c2coc3c(OC)c(OC)cc(OC)c3c2=O)cc1
assigned label: inactive

compound: O=C(/C=C/C=C/c1ccc2c(c1)OCO2)N1CCCCC1
assigned label: inactive

Hi, do you know how "COc1c2c(c(CC=C(C)C)c3oc(=O)c(-c4ccc(O)cc4)c(O)c13)OC(C)(C)C=C2" came out in this test?
active

What outcome does the record of this test show for "COc1ccc(-c2coc3c(OC)c(O)ccc3c2=O)cc1" ?
inactive

* * *

assay details: chemical genetic growth profiling, strain panel (AID 1159580)
condition parameters: S. cerevisiae deletion strains, growth OD, locus YCR088W, strain abp1, active compounds read low
Out of some 5,500 compounds screened, about 2,000 (36%) were called active. About 18% were inconclusive and are not listed. The list shows a part of the results.
attribute measured: normalized growth
API note: the answer field is a bare number with no unit suffix.

Here are 5 compounds together with their reported answers.
compound: COc1c(O)cc2oc3cc(O)c(CC=C(C)C)c(O)c3c(=O)c2c1CC=C(C)C
measured result: 1
--
compound: Cc1cc(=O)c2c(O)c(C)c(O)cc2o1
measured result: 1.02
--
compound: CC1(C)C2CC[C@]3(C)C(C(=O)C=C4[C@H]5C[C@@](C)(C(=O)O)CC[C@]5(C)CC[C@]43C)[C@@]2(C)CC[C@@H]1O (stereo partly specified)
measured result: 1.01
--
compound: CC1(C)C2CC[C@]3(C)C(C(=O)C=C4[C@@H]5C[C@@](C)(C(=O)O)CC[C@]5(C)CC[C@]43C)[C@@]2(C)CC[C@@H]1OC(=O)CCC(=O)O (stereo partly specified)
measured result: 0.985
--
compound: COc1cc(O)c2c(=O)cc(C)oc2c1CC=C(C)C
measured result: 0.982

# context switch: different compound, same normalized growth
Memo: CC1(C)C2CC[C@]3(C)C(C(=O)C=C4[C@@H]5C[C@@](C)(C(=O)O)CC[C@]5(C)CC[C@]43C)[C@@]2(C)CC[C@@H]1O (stereo partly specified) , reported normalized growth: 1.02

* * *

assay details: chemical genetic growth profiling, strain panel (AID 1159580)
condition parameters: S. cerevisiae deletion strains, growth OD, locus YMR205C, strain PFK2, active compounds read low
Out of some 5,500 compounds screened, about 2,000 (36%) were called active. Inconclusive results (about 18%) are left out. Some of the results follow.
Rule for this label: condition met means normalized growth is less than 1; condition not met means normalized growth is at least 1.

molecule: C1CCc2nnnn2CC1
assigned label: condition not met

Dear colleague, could you confirm whether normalized growth of CC(=O)O[C@]1(C(C)=O)CCC2C3C[C@H](C)C4=CC(=O)CC[C@]4(C)C3CC[C@@]21C (stereo not given in full) falls below 1? Thanks.
condition met

Take the molecule CC(C)(CO)C(O)C(=O)NCCCO (stereo not given) and say whether its normalized growth is less than 1.
condition not met

Determine if CC(C)CC1C(=O)N2CCC[C@H]2C2(O)O[C@](NC(=O)C3C=C4c5cccc6[nH]c(Br)c(c56)C[C@H]4N(C)C3)(C(C)C)C(=O)N12 (stereo not given in full) shows normalized growth strictly lower than 1.
condition met

* * *

Form field: normalized growth (one value per entry).
assay details: chemical genetic growth profiling, strain panel (AID 1159580)
condition parameters: S. cerevisiae deletion strains, growth OD, locus YNL183C, strain NPR1, active compounds read low
The whole screen tested about 5,500 compounds, of which about 2,000 (36%) were called active. About 18% were inconclusive and are not listed. Some of the results follow.
Please give the numeric answer without any surrounding text.

Record excerpt, results attached:
compound: C[N+](C)(CCOc1ccccc1)Cc1ccccc1
normalized growth: 0.788
--
compound: C[N+](C)(C)CC(=O)[O-]
normalized growth: 0.938
--
compound: OC(CCN1CCCCC1)(c1ccccc1)c1ccccc1
normalized growth: 0.971

In plain terms, "CCCCOc1ccc(OCCCN2CCOCC2)cc1" has a documented normalized growth of 0.917

Item: "OCCN(CCO)c1nc(N2CCCCC2)c2nc(N(CCO)CCO)nc(N3CCCCC3)c2n1" | normalized growth: 0.956

The recorded normalized growth for CCCCCC(C)N (configuration not stated) is 0.943

Reported normalized growth for "N=c1nc(N2CCCCC2)cc(N)n1O" was 0.945

For Cc1ccc(C(=O)C(C)CN2CCCCC2)cc1 (configuration not stated) the compound record lists normalized growth as 0.899

* * *

assay details: chemical genetic growth profiling, strain panel (AID 1159580);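 further: tested at 20 µM; growth read once vehicle control cultures reached saturation at 30 °C; 1 = growth at the plate median or of vehicle wells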
condition parameters: S. cerevisiae deletion strains, growth OD, locus YOR231W, strain MKK1, active compounds read low
Hit rate of the full screen: of about 5,500 compounds, about 2,000 (36%) were called active. Another 18% or so got no clear call; they are omitted. This is one part of the list.
Mark 1.0 for normalized growth under 1, 0.0 if at or over.

compound: CC1=CC(=O)C(CCOCCC2=CC(=O)C(C)=CC2=O)=CC1=O
assigned label: 0.0
--
compound: C=C1CC[C@H](O)C/C1=C/C=C1\CCCC2(C)C1CCC2C(C)CCCC(C)C (stereo partly drawn)
assigned label: 1.0
--
compound: C=CC(=O)N1CCc2cc([N+](=O)[O-])ccc21
assigned label: 1.0
--
compound: COc1cc2c3cc1Oc1c(OC)c(OC)cc4c1[C@@H](Cc1cccc(c1)Oc1ccc(c(O)c1)C[C@@H]3N(C)CC2)N(C)CC4
assigned label: 0.0
--
compound: CCC1(c2ccc(N)cc2)CCC(=O)NC1=O (stereo not drawn)
assigned label: 0.0

In the record for "c1ccc(CN(CC2=NCCN2)c2ccccc2)cc1" , is normalized growth less than 1?
0.0

* * *

assay details: chemical genetic growth profiling, strain panel (AID 1159580);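 further: tested at 20 µM; growth read once vehicle control cultures reached saturation at 30 °C; 1 = growth at the plate median or of vehicle wells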
condition parameters: S. cerevisiae deletion strains, growth OD, locus YDL192W, strain arf1, active compounds read low
Hit rate of the full screen: of about 5,500 compounds, about 2,000 (36%) were called active. Another 18% or so got no clear call; they are omitted. This is one part of the list.
attribute measured: normalized growth
Just the number, please.

compound: CCCCOc1ccc(OCCCN2CCOCC2)cc1
normalized growth: 0.893

normalized growth reading for COc1ccc(CC2c3cc(OC)c(OC)cc3CCN2C)cc1OC (stereo unspecified) : 0.994

response.value for CC(=O)O[C@]1(C(C)=O)CCC2C3C=C(C)C4=CC(=O)CCC4(C)C3CCC21C (stereo partly specified) (field: normalized growth) = 0.957

* * *

assay details: chemical genetic growth profiling, strain panel (AID 1159580);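 further: tested at 20 µM; growth read once vehicle control cultures reached saturation at 30 °C; 1 = growth at the plate median or of vehicle wells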
condition parameters: S. cerevisiae deletion strains, growth OD, locus YAL013W, strain DEP1, active compounds read low
About 2,000 (36%) of roughly 5,500 compounds were called active. Roughly 18% stayed inconclusive and do not appear here. Some of the results follow.
Catalogue of normalized growth readings, one per entry.
Would you mind answering with just the numeric figure?

Use these answered entries as a reference point.
compound: CCCCOc1ccc(C(=O)CCC(=O)O)cc1
normalized growth: 0.977
//
compound: COc1cc(C(O)C(=O)O)ccc1O (stereo unspecified)
normalized growth: 0.996
//
compound: CCc1cccc(C)c1N(C(=O)CCl)C(C)COC (stereo unspecified)
normalized growth: 1.01
//
compound: CC(SCc1ccccc1)C(=O)O (stereo unspecified)
normalized growth: 0.971
//
compound: COc1c(O)cc2oc3cc(O)c(CC=C(C)C)c(O)c3c(=O)c2c1CC=C(C)C
normalized growth: 0.346
//
compound: N#C/C(=C\c1ccc(O)c(O)c1)C(=O)Nc1ccccc1
normalized growth: 0.988
//
compound: CC(C)=CCc1c(O)cc2oc(C)cc(=O)c2c1O
normalized growth: 0.96
//
compound: COC1C(O)C(O)C(O)[C@@H](O)C1O (stereo partly specified)
normalized growth: 1.01
//
compound: Cc1cc(C)c(NC(=S)NCCCN2CCOCC2)c(C)c1
normalized growth: 1
//
compound: CC(C)[N+](C)(CCOC(=O)C1c2ccccc2Oc2ccccc21)C(C)C
normalized growth: 1.01

Summary for this compound, "CCCC(C)(SCC(=O)O)SCC(=O)O" : normalized growth is 1

response.value for COc1ccc(CC2c3cc(OC)c(OC)cc3CCN2C)cc1OC (stereo unspecified) (field: normalized growth) = 0.984

Summary for this compound, "COc1ccc2c(c1)OC[C@@H](Cc1ccc(OC)c(OC)c1)[C@H]2O" : normalized growth is 0.986

Measured normalized growth, CC(N)Cc1c[nH]c2ccc(O)cc12 (stereo unspecified) : 1.02

normalized growth in this record for "CN1C/C(=C\c2ccccc2Cl)C(=O)/C(=C/c2ccccc2Cl)C1" : 0.953

Data point: "CCCN1CCC[C@@H]2Cc3nc(N)ncc3C[C@H]21" ; normalized growth = 1.02

The compound listed as "COc1ccc(C(=O)c2ccccc2O)c(O)c1" has a reported normalized growth of 0.91

# normalized growth of CC1CCN=C(N)S1 (stereo unspecified) = 0.997
